# Heartbeat Frequency x ± sx per record follows
Tested on: cardiac β-receptor
Test: cardiac β-receptor blocking activity: inhibition of isoprenalin tachycardia in wake rabbits
Conditions: wake rabbits, 0.1 mg/kg i.v. infusion, 30 min later isoprenalin i.v.
Only the number, expressed in beats/min, is required.

These recorded examples may help you get a feel for the data.
compound	measured
Cc1nc2cccc(OCC(O)CNC(C)C)c2[nH]1 (centres unmarked) [Compound III]	255
CC(C)NCC(O)COc1cccc2ccccc12 (centres unmarked) [Compound B, reference compound]	309
Cc1nc2cccc(OCC(O)CNC(C)(C)C)c2[nH]1 (centres unmarked) [Compound IV]	248
CC(C)NCC(O)COc1cccc2nc[nH]c12 (centres unmarked) [Compound I]	239

We now examine a further compound.
Summary for this compound, CC(C)(C)NCC(O)COc1cccc2nc[nH]c12 (centres unmarked) [Compound II] : Heartbeat Frequency x ± sx is 236

---

Tested on: cardiac β-receptor
Experiment: cardiac β-receptor blocking activity: inhibition of isoprenalin tachycardia in wake rabbits
Conditions: ratio of mouse i.v. LD50 to rabbit i.v. DE250 (therapeutic breadth)
# LD50/DE250 per record follows
Format: numeric value only, no unit, no commentary.

compound	target or test system	result type	measured
CC(=O)Nc1ccc(OCC(O)CNC(C)C)cc1 (centres unmarked) [Compound A, reference compound]	cardiac β-receptor	LD50/DE250	28
CC(C)NCC(O)COc1cccc2nc[nH]c12 (centres unmarked)	cardiac β-receptor	LD50/DE250	422
Cc1nc2cccc(OCC(O)CNC(C)(C)C)c2[nH]1 (centres unmarked)	cardiac β-receptor	LD50/DE250	425
Cc1nc2cccc(OCC(O)CNC(C)C)c2[nH]1 (centres unmarked)	cardiac β-receptor	LD50/DE250	170

We now examine a further compound.
Summary for this compound, CC(C)(C)NCC(O)COc1cccc2nc[nH]c12 (centres unmarked) : LD50/DE250 is 560

---

System: cardiac β-receptor
Assay: cardiac β-receptor blocking activity: inhibition of isoprenalin tachycardia in wake rabbits
Conditions: wake rabbits, 1.0 mg/kg i.v. infusion, 30 min later isoprenalin i.v.
# Heartbeat Frequency x ± sx per record follows
Only the number, expressed in beats/min, is required.

These recorded examples may help you get a feel for the data.
molecule	units label	Heartbeat Frequency x ± sx
CC(C)NCC(O)COc1cccc2nc[nH]c12 (stereo not drawn) [Compound I]	beats/min	218
Cc1nc2cccc(OCC(O)CNC(C)C)c2[nH]1 (stereo not drawn) [Compound III]	beats/min	234

Form field, Heartbeat Frequency x ± sx with cardiac β-receptor, item Cc1nc2cccc(OCC(O)CNC(C)(C)C)c2[nH]1 (stereo not drawn) [Compound IV] : 211

Form field, Heartbeat Frequency x ± sx with cardiac β-receptor, item CC(C)NCC(O)COc1cccc2ccccc12 (stereo not drawn) [Compound B, reference compound] : 210

Form field, Heartbeat Frequency x ± sx with cardiac β-receptor, item CC(C)(C)NCC(O)COc1cccc2nc[nH]c12 (stereo not drawn) [Compound II] : 244

Form field, Heartbeat Frequency x ± sx with cardiac β-receptor, item CC(=O)Nc1ccc(OCC(O)CNC(C)C)cc1 (stereo not drawn) [Compound A, reference compound] : 264
